# study_system: hNav1.7 (Homo sapiens, UniProt Q15858)
# Construct: host or cells: CHO
# Sequence (Q15858 whole entry): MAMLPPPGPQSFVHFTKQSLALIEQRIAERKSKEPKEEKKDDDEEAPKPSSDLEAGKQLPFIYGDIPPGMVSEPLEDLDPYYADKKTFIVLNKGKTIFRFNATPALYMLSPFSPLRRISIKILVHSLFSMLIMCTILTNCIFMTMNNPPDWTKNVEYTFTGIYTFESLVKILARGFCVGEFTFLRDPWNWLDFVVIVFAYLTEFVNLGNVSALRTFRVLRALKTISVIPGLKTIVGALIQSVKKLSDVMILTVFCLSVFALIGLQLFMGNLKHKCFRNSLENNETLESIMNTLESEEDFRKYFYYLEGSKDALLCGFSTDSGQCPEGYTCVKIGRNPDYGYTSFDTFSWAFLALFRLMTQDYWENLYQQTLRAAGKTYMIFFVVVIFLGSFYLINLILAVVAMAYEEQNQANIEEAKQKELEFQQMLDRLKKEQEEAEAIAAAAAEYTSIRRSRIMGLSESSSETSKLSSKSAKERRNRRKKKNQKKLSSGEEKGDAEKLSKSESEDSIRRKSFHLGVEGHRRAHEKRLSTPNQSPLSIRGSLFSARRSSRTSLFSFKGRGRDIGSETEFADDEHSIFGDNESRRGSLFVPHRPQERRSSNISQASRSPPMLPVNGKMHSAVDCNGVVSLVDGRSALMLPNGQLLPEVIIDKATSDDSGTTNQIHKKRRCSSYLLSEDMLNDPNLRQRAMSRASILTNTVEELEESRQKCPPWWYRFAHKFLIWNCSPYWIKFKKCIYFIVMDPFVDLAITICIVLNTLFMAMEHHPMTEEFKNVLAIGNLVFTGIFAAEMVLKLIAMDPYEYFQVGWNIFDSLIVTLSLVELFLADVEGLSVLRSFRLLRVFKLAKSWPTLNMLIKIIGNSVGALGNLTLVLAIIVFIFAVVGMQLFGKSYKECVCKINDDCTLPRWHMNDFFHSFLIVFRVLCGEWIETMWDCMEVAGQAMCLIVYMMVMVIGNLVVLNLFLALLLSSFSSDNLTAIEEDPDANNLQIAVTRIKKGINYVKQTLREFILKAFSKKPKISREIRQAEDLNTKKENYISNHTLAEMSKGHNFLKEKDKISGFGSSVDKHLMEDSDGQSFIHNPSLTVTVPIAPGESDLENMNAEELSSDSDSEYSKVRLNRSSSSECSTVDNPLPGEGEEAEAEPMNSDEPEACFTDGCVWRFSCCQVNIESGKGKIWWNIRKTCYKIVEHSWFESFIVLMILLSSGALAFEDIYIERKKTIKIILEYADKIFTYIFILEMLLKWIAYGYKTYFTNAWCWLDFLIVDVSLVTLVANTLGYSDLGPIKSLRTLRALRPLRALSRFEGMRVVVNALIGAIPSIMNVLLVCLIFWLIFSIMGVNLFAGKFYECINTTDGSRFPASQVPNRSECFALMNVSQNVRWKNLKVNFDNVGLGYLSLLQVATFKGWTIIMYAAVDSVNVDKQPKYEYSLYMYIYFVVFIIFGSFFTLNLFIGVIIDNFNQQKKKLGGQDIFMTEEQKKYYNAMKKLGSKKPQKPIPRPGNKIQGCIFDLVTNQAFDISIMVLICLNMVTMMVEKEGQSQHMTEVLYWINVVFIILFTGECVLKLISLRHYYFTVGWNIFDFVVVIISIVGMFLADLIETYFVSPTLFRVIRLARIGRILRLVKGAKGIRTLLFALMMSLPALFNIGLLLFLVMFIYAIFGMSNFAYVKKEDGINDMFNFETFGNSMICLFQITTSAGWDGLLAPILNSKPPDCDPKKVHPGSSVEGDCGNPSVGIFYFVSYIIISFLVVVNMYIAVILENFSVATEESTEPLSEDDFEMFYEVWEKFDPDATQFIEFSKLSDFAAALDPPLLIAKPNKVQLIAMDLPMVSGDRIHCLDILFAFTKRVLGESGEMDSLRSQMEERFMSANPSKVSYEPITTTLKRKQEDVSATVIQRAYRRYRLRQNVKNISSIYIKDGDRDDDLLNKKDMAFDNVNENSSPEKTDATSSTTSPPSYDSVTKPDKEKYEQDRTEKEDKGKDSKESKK
# procedure_details: Manual patch clamp experiment hNav1.7 (CHO-hNav1.7 stable cell line)
# Assay type: cell-based
# condition_notes: compound at 1000 nM; read-out: Inhibition of Nav1.7 1000 nM(%)
assay_metric: inhibition at 1 µM (%)

INSERT INTO measurements (compound, assay_metric, unit, value_reported) VALUES
  ('Cc1cc(N2CCN(Cc3cc(F)c(C(=O)NS(=O)(=O)C4CC4)cc3Cl)CC2)c(C)cc1Cl', 'inhibition at 1 µM', '%', 99.5),
  ('O=C(NS(=O)(=O)C1CC1)c1cc(C2CC2)c(OC[C@H]2CCCN2c2ccc(C(F)(F)F)cn2)cc1F', 'inhibition at 1 µM', '%', 97.8),
  ('CS(=O)(=O)NC(=O)c1cc(C2CC2)c(CN2CCN(Cc3cc(Cl)cc(Cl)c3)CC2)cc1F [Compound C11, reference compound]', 'inhibition at 1 µM', '%', 51.9),
  ('O=C(NS(=O)(=O)C1CC1)c1cc(Cl)c(CN2CCN(c3ccc(OC(F)(F)F)cn3)CC2)cc1F', 'inhibition at 1 µM', '%', 97.3),
  ('O=C(NS(=O)(=O)C1CC1)c1cc(Cl)c(OC[C@H]2CCCN2c2ccc(C(F)(F)F)cc2)cc1F', 'inhibition at 1 µM', '%', 96.8),
  ('O=C(NS(=O)(=O)C1CC1)c1cc(Cl)c(OC[C@H]2CCCN2C(=O)c2ccc(C(F)(F)F)cc2)cc1F [Compound C10, reference compound]', 'inhibition at 1 µM', '%', 24.7),
  ('CS(=O)(=O)NC(=O)c1cc(C2CC2)c(CN2CCN(Cc3ccc(Cl)c(Cl)c3)CC2)cc1F [Compound C2, reference compound]', 'inhibition at 1 µM', '%', 64.8),
  ('O=C(NS(=O)(=O)C1CC1)c1cc(Cl)c(CN2CCN(c3ccc(OC(F)(F)F)c(Cl)c3)CC2)cc1F', 'inhibition at 1 µM', '%', 97.3),
  ('O=C(NS(=O)(=O)C1CC1)c1cc(Cl)c(OC[C@H]2CCCN2Cc2ccc(C(F)(F)F)cc2)cc1F [Compound C8, reference compound]', 'inhibition at 1 µM', '%', 66.8),
  ('CCc1cc(C(=O)NS(=O)(=O)C2CC2)c(F)cc1CN1CCN(c2ccc(OC(F)(F)F)cc2)CC1', 'inhibition at 1 µM', '%', 99.2),
  ('O=C(NS(=O)(=O)C1CC1)c1cc(Cl)c(OC[C@H]2CCCN2c2ccc(C(F)(F)F)cn2)cc1F', 'inhibition at 1 µM', '%', 96.7),
  ('CCc1cc(C(=O)NS(=O)(=O)C2CC2)c(F)cc1CN1CCN(c2ccc(Cl)c(F)c2)CC1', 'inhibition at 1 µM', '%', 95.7),
  ('Cc1cc(N2CCN(Cc3cc(F)c(C(=O)NS(=O)(=O)C4CC4)cc3Cl)CC2)ccc1Cl', 'inhibition at 1 µM', '%', 102),
  ('O=C(NS(=O)(=O)C1CC1)c1cc(Cl)c(OC[C@H]2CCCN2C(=O)c2ccc(Cl)cc2)cc1F [Compound C9, reference compound]', 'inhibition at 1 µM', '%', 29.1),
  ('Cc1cc(CN2CCN(Cc3cc(F)c(C(=O)NS(=O)(=O)C4CC4)cc3Cl)CC2)ccc1Cl [Compound C4, reference compound]', 'inhibition at 1 µM', '%', 58.9),
  ('Cc1cc(C(=O)NS(=O)(=O)C2CC2)c(F)cc1OC[C@H]1CCCN1c1ccc(C(F)(F)F)cn1', 'inhibition at 1 µM', '%', 92.7),
  ('Cc1cc(N2CCN(Cc3cc(F)c(C(=O)NS(=O)(=O)C4CC4)cc3Cl)CC2)cc(C)c1Cl', 'inhibition at 1 µM', '%', 94.9),
  ('Cc1cc(C(=O)N2CCN(Cc3cc(F)c(C(=O)NS(=O)(=O)C4CC4)cc3Cl)CC2)ccc1Cl [Compound C3, reference compound]', 'inhibition at 1 µM', '%', 52.3),
  ('Cc1c(Cl)ccc(N2CCN(Cc3cc(F)c(C(=O)NS(=O)(=O)C4CC4)cc3Cl)CC2)c1F', 'inhibition at 1 µM', '%', 98.1);

###

# procedure_details: Metabolism stability assay, human liver microsomes
# Format: in vitro ADME
# reported Clearance; entries follow
assay_metric: Clearance (mL/min/kg)

INSERT INTO assay_data (compound, unit, value_reported) VALUES
  ('C[C@@H]1CN(c2ccc(Cl)c(Cl)c2)CCN1Cc1cc(F)c(C(=O)NS(=O)(=O)C2CC2)cc1Cl', 'mL/min/kg', 2.20),
  ('Cc1ccc(N2CCN(Cc3cc(F)c(C(=O)NS(=O)(=O)C4CC4)cc3Cl)CC2)cc1Cl', 'mL/min/kg', 0.00),
  ('O=C(NS(=O)(=O)C1CC1)c1cc(Cl)c(OC[C@H]2CCCN2c2ccc(C(F)(F)F)cc2)cc1F', 'mL/min/kg', 36.37),
  ('Cc1cc(N2CCN(Cc3cc(F)c(C(=O)NS(=O)(=O)C4CC4)cc3Cl)CC2)ccc1Cl', 'mL/min/kg', 20.12),
  ('CCc1cc(C(=O)NS(=O)(=O)C2CC2)c(F)cc1CN1CCN(c2ccc(OC(F)(F)F)cc2)CC1', 'mL/min/kg', 2.74),
  ('O=C(NS(=O)(=O)C1CC1)c1cc(Cl)c(CN2CCN(c3ccc(Cl)c(Cl)c3)CC2)cc1F', 'mL/min/kg', 6.49),
  ('CCc1cc(N2CCN(Cc3cc(F)c(C(=O)NS(=O)(=O)C4CC4)cc3Cl)CC2)ccc1Cl', 'mL/min/kg', 23.88),
  ('O=C(NS(=O)(=O)C1CC1)c1cc(Cl)c(CN2CCN(c3ccc(OC(F)(F)F)c(Cl)c3)CC2)cc1F', 'mL/min/kg', 0.07),
  ('O=C(NS(=O)(=O)C1CC1)c1cc(Cl)c(CN2CCN(c3ccc(C4CC4)c(Cl)c3)CC2)cc1F', 'mL/min/kg', 6.20),
  ('CS(=O)(=O)NC(=O)c1cc(Cl)c(CN2CCN(c3ccc(C4CC4)c(Cl)c3)CC2)cc1F [Compound C12, reference compound]', 'mL/min/kg', 78.28),
  ('O=C(NS(=O)(=O)C1CC1)c1cc(Cl)c(OC[C@H]2CCCN2c2ccc(C(F)(F)F)nc2)cc1F', 'mL/min/kg', 22.57),
  ('Cc1cc(N2CCN(Cc3cc(F)c(C(=O)NS(C)(=O)=O)cc3Cl)CC2)ccc1Cl [Compound C13, reference compound]', 'mL/min/kg', 138.91),
  ('O=C(NS(=O)(=O)C1CC1)c1cc(Cl)c(CN2CCN(c3ccc(OC(F)(F)F)cn3)CC2)cc1F', 'mL/min/kg', 3.69),
  ('O=C(NS(=O)(=O)C1CC1)c1cc(Cl)c(OC2CCN(c3ccc(Cl)c(Cl)c3)CC2)cc1F', 'mL/min/kg', 5.41),
  ('Cc1cc(C(=O)NS(=O)(=O)C2CC2)c(F)cc1OC[C@H]1CCCN1c1ccc(C(F)(F)F)cn1', 'mL/min/kg', 20.86);
